The origin of these recorded values is PubChem BioAssay (NCATS).

- ASSAY_PROTOCOL: P-glycoprotein substrates identified in KB-8-5-11 adenocarcinoma cell line, qHTS therapeutic library screen (AID 1346987); also: nearly all actives have a fitted effect of over 65% in size
- CONDITION_CONTEXT: KB-8-5-11 (P-gp overexpressing) viability, CellTiter-Glo, 72 h; series mostly up to 44.5 µM
Inconclusive results are not listed. The source made the active and inactive calls. Calls follow the shape of the dose curve; as a rule, active = well fitted inhibition curve with a large enough effect; inconclusive = small, poorly fitted or top-dose-only effect; inactive = flat fitted curve, though single readings scatter.
Outcome codes: 1 (yes) (active), 0 (no) (inactive)

| COMPOUND | CLASS |
| --- | --- |
| Cc1ccccc1C(OCCN(C)C)c1ccccc1 (stereo unspecified) | 0 (no) |
| CC(C)(C)NCC(O)c1ccc(O)c(CO)c1 (stereo unspecified) | 0 (no) |
| COc1cc(Nc2ncc3c(n2)-c2ccc(Cl)cc2C(c2c(F)cccc2OC)=NC3)ccc1C(=O)O | 1 (yes) |
| CCCCNc1cc(C(=O)O)cc(S(N)(=O)=O)c1Oc1ccccc1 | 0 (no) |
| CCN(CC)CCCC(C)Nc1nc(C)cc(Nc2ccc3nc(C)cc(N)c3c2)n1 (stereo unspecified) | 0 (no) |
| CN1CCN(CCCN2c3ccccc3Sc3ccc(C(F)(F)F)cc32)CC1 | 0 (no) |
| COc1ccc(CC2=NN3C([C@@H](CCc4ccccc4)[C@@H](C)O)=NC(C)C3C(=O)N2)cc1OC (stereo partly specified) | 0 (no) |
| COc1cc(F)c(F)c(Nc2ccc(I)cc2F)c1NS(=O)(=O)C1(C[C@H](O)CO)CC1 | 0 (no) |
| CC(C[N+](C)(C)C)OC(N)=O (stereo unspecified) | 0 (no) |
| C1COC(NC(C2CC2)C2CC2)=N1 | 0 (no) |
| CN[C@@H](C)C(=O)N[C@H]1CCCC[C@H]2CC[C@@H](C(=O)N[C@@H](c3ccccc3)c3cn(CCCCc4ccc(CCCCn5cc([C@@H](NC(=O)[C@@H]6CC[C@@H]7CCCC[C@H](NC(=O)[C@H](C)NC)C(=O)N76)c6ccccc6)nn5)cc4)nn3)N2C1=O | 0 (no) |
| N#CC[C@H](C1CCCC1)n1cc(-c2ncnc3[nH]ccc23)cn1 | 1 (yes) |
| CC(C)NCC(O)COc1ccc(COCCOC(C)C)cc1 (stereo unspecified) | 0 (no) |
| O=c1n(CCCN2CCN(c3cccc(Cl)c3)CC2)nc2ccccn12 | 0 (no) |
| Nc1ccc(S(=O)(=O)Nc2ccnn2-c2ccccc2)cc1 | 0 (no) |
| NC(N)=NC(=O)c1nc(Cl)c(N)nc1N | 1 (yes) |
| CC[C@@H](C)[C@H](NC(=O)[C@H](CC1CCCCC1)NC(=O)c1ccno1)C(=O)N1CCC2(CCc3ccccc32)CC1 | 0 (no) |
| c1ccc([C@H]2CN3CCSC3=N2)cc1 | 0 (no) |
| CCCC(CCC)C(=O)O | 0 (no) |
| O=C(C=Cc1ccc(/C=C/C(=O)Nc2ccc(C3=NCCN3)cc2)cc1)Nc1ccc(C2=NCCN2)cc1 | 0 (no) |
| Nc1ncnc2nc(-c3ccc(N4CCOCC4)nc3)cc(-c3cccc(Br)c3)c12 | 0 (no) |
| O=C(O)CCc1ccc(NCc2cccc(Oc3ccccc3)c2)cc1 | 0 (no) |
| NC(=O)C1CCCc2c1[nH]c1ccc(Cl)cc21 (stereo unspecified) | 0 (no) |
| COc1cc2c(cc1OC)CN(CCc1ccc(NC(=O)c3cccc4c(=O)c5cccc(OC)c5[nH]c34)cc1)CC2 | 0 (no) |
| CCc1cc(Nc2nccc(-c3c(-c4ccc(OC)c(C(=O)Nc5c(F)cccc5F)c4)nc4ccccn34)n2)c(OC)cc1N1CCC(N2CCN(S(C)(=O)=O)CC2)CC1 | 0 (no) |
| Clc1cccc(Cl)c1NC1=NCCN1 | 0 (no) |
| OC(CCN1CCCCC1)(c1ccccc1)C1CC2C=CC1C2 (stereo unspecified) | 0 (no) |
| Cc1n[nH]c(C)c1Cc1sc2c(c1C(=O)N1C[C@H](O)CO1)c(=O)n(C)c(=O)n2CC(C)C | 0 (no) |
| O=c1[nH]c(-c2ccc(C(F)(F)F)cc2)nc2c1CSCC2 | 0 (no) |
| COc1ccc(CCN2CCN(CCCc3ccccc3)CC2)cc1OC | 0 (no) |
| CCN(c1ccccc1)c1cc(NC)[n+](C)c(C)n1 | 0 (no) |
| Cn1cnc2c(F)c(Nc3ccc(Br)cc3Cl)c(C(=O)NOCCO)cc21 | 0 (no) |
| O=c1ncn2nc(Sc3ccc(F)cc3F)ccc2c1-c1c(Cl)cccc1Cl | 0 (no) |
| C[C@H](NC(=O)Cc1cc(F)cc(F)c1)C(=O)N[C@@H]1C(=O)N(C)c2ccccc2-c2ccccc21 | 0 (no) |
| NC(=O)c1cnccn1 | 0 (no) |
| CCC(C)n1ncn(-c2ccc(N3CCN(c4ccc(OC[C@H]5CO[C@](Cn6cncn6)(c6ccc(Cl)cc6Cl)O5)cc4)CC3)cc2)c1=O (stereo partly specified) | 0 (no) |
| CC(C)C[C@H](NC(=O)[C@@H](O)[C@H](N)Cc1ccccc1)C(=O)O | 1 (yes) |
| O=S(=O)(N=Cc1c(O)ccc2ccccc12)c1cccs1 | 0 (no) |
| CCOc1ccc(Cc2cc([C@@H]3O[C@H](CO)[C@@H](O)[C@H](O)[C@@H]3O)ccc2Cl)cc1 | 0 (no) |
| CCOc1cc(N2CCC(O)CC2)ccc1Nc1ncc2c(n1)N(C)c1ccccc1C(=O)N2C | 1 (yes) |
| O=NN(CCCl)C(=O)NCCCl | 0 (no) |
